- Test system: MRC5
- measurement.protocol: Cytotoxicity against human MRC5 cells by MTT assay
- Type: cell-based
# IC50 listing for each entry below

>  <molecule>
COc1ccc2cc1-c1cc(ccc1O)C[C@H]1c3cc4c(cc3CCN1C)Oc1c(OC)cc3c(c1O4)[C@@H](C2)N(C)CC3 [TILIACORINE]

>  <experimental.system>
MRC5

>  <scale.unit>
µg/mL

>  <IC50>
3.87

$$$$
>  <molecule>
COc1ccc2cc1-c1cc(ccc1O)C[C@@H]1NCCc3cc4c(cc31)Oc1c(c(OC)cc3c1[C@H](C2)N(C)CC3)O4

>  <experimental.system>
MRC5

>  <scale.unit>
µg/mL

>  <IC50>
3.8

$$$$
>  <molecule>
COc1ccc2cc1-c1cc(cc(Br)c1O)C[C@H]1c3cc4c(cc3CCN1C)Oc1c(OC)cc3c(c1O4)[C@H](C2)N(C)CC3

>  <experimental.system>
MRC5

>  <scale.unit>
µg/mL

>  <IC50>
20

$$$$
>  <molecule>
COc1ccc2cc1-c1cc(ccc1O)C[C@H]1c3cc4c(cc3CCN1C)Oc1c(OC)cc3c(c1O4)[C@H](C2)N(C)CC3 [TILIACORININE]

>  <experimental.system>
MRC5

>  <scale.unit>
µg/mL

>  <IC50>
3.13

$$$$

====

- System: MRC5
- measurement.protocol: Cytotoxicity against human MRC5 cells at 2 ug/ml by MTT assay
- Format: cell-based

>  <compound>
COc1ccc2cc1-c1cc(ccc1O)C[C@H]1c3cc4c(cc3CCN1C)Oc1c(OC)cc3c(c1O4)[C@@H](C2)N(C)CC3 [TILIACORINE]

>  <Activity>
Non-toxic

$$$$
>  <compound>
COc1ccc2cc1-c1cc(ccc1O)C[C@@H]1NCCc3cc4c(cc31)Oc1c(c(OC)cc3c1[C@H](C2)N(C)CC3)O4

>  <Activity>
Non-toxic

$$$$
>  <compound>
COc1ccc2cc1-c1cc(ccc1O)C[C@H]1c3cc4c(cc3CCN1C)Oc1c(OC)cc3c(c1O4)[C@H](C2)N(C)CC3 [TILIACORININE]

>  <Activity>
Non-toxic

$$$$
>  <compound>
COc1ccc2cc1-c1cc(cc(Br)c1O)C[C@H]1c3cc4c(cc3CCN1C)Oc1c(OC)cc3c(c1O4)[C@H](C2)N(C)CC3

>  <Activity>
Non-toxic

$$$$

====

Entries and their MIC
- Tested on: Mycobacterium tuberculosis
- measurement.protocol: Antimycobacterial activity against Mycobacterium tuberculosis H37Ra after 16 to 24 hrs by alamar blue assay
- Type: functional

>  <smiles.input>
COc1ccc2cc1-c1cc(ccc1O)C[C@H]1c3cc4c(cc3CCN1C)Oc1c(OC)cc3c(c1O4)[C@H](C2)N(C)CC3

>  <scale.unit>
µg/mL

>  <MIC>
3.1

$$$$
>  <smiles.input>
COc1ccc2cc1-c1cc(ccc1O)C[C@H]1c3cc4c(cc3CCN1C)Oc1c(OC)cc3c(c1O4)[C@@H](C2)N(C)CC3

>  <scale.unit>
µg/mL

>  <MIC>
3.1

$$$$
>  <smiles.input>
COc1ccc2cc1-c1cc(ccc1O)C[C@@H]1NCCc3cc4c(cc31)Oc1c(c(OC)cc3c1[C@H](C2)N(C)CC3)O4

>  <scale.unit>
µg/mL

>  <MIC>
3.1

$$$$
>  <smiles.input>
COc1ccc2cc1-c1cc(cc(Br)c1O)C[C@H]1c3cc4c(cc3CCN1C)Oc1c(OC)cc3c(c1O4)[C@H](C2)N(C)CC3

>  <scale.unit>
µg/mL

>  <MIC>
6.2

$$$$
